Test: Binding affinity against c-Src tyrosine kinase SH2 domain expressed as ratio of IC50 of test compound over IC50 of AcYEEIE
Measurement type: Ratio

Here is how some compounds turned out for Ratio.
CCCCCN(CCCCC)C(=O)[C@H](CCC(=O)O)NC(=O)[C@H](Cc1ccc(OP(=O)(O)O)cc1)NC(=O)CSc1ccccc1 17.7
CCCCCN(CCO)C(=O)[C@H](CCC(=O)O)NC(=O)[C@H](Cc1ccc(OP(=O)(O)O)cc1)NC(C)=O 16.7
CC(=O)N[C@@H](Cc1ccc(OP(=O)(O)O)cc1)C(=O)N[C@@H](CCC(=O)O)C(=O)N(C)CCCCCCO 6.4

Data request: Dear colleague, I am looking for the recorded Ratio of the following compound: `CCCCCCN(CCCCCC)C(=O)[C@H](CCC(=O)O)NC(=O)[C@H](Cc1ccc(OP(=O)(O)O)cc1)NC(C)=O`
Data returned: 24

Data request: Now the compound `CCCCCN(CCCCC)C(=O)[C@H](CCC(=O)O)NC(=O)[C@H](Cc1ccc(OP(=O)(O)O)cc1)NC(=O)CCc1cccnc1`
Data returned: 17.7

Data request: Item: `CCCCCN(CCC(=O)O)C(=O)[C@H](CCC(=O)O)NC(=O)[C@H](Cc1ccc(OP(=O)(O)O)cc1)NC(C)=O`
Data returned: 48

Data request: And what about the compound `CCCCCN(CCCCC)C(=O)[C@H](CSC)NC(=O)[C@H](Cc1ccc(OP(=O)(O)O)cc1)NC(C)=O` ?
Data returned: 33.1

----------
Assay: Binding affinity against c-Src tyrosine kinase SH2 domain expressed as ratio of IC50 of test compound over IC50 of AcYEEIE
Entries and their Ratio values follow.

CCCCCN(CCCCC)C(=O)[C@H](CCC(=O)O)NC(=O)[C@H](Cc1ccc(OP(=O)(O)O)cc1)NC(=O)Cc1ccccc1 16.5
CCCCCN(CCCCC)C(=O)[C@H](CSCc1ccccc1)NC(=O)[C@H](Cc1ccc(OP(=O)(O)O)cc1)NC(C)=O 155
CCCCCN(CCCCC)C(=O)[C@H](CCC(=O)O)NC(=O)[C@H](Cc1ccc(OP(=O)(O)O)cc1)NC(=O)c1ccc(OC)cc1 7.2

Data request: Return reported Ratio; argument: `CCCCCCCN(CCCCCCC)C(=O)[C@H](CCC(=O)O)NC(=O)[C@H](Cc1ccc(OP(=O)(O)O)cc1)NC(C)=O`
Data returned: 327

Data request: Next entry: `CC(=O)N[C@@H](Cc1ccc(OP(=O)(O)O)cc1)C(=O)N[C@@H](CCC(=O)O)C(=O)N(C)CCCc1c(C(N)=O)[nH]c2ccccc12`
Data returned: 9.3

Data request: // repeat for `CCCCCN(CCCCC)C(=O)[C@H](CCC(=O)O)NC(=O)[C@H](Cc1ccc(OP(=O)(O)O)cc1)NC(=O)CSCc1ccccc1` and report
Data returned: 18.9

Data request: Also, `CC(=O)N[C@@H](Cc1ccc(OP(=O)(O)O)cc1)C(=O)N[C@@H](CCC(=O)O)C(=O)N(C)CCCCCCCCO` please.
Data returned: 2.2

Data request: Try the molecule `CCCCCN(CCCCC)C(=O)[C@H](CCC(=O)O)NC(=O)[C@H](Cc1ccc(OP(=O)(O)O)cc1)NC(=O)c1ccc(C(F)(F)F)cc1`
Data returned: 25.4

Data request: Next molecule up: `CCCCCN(CCCCC)C(=O)[C@H](CCS(C)(=O)=O)NC(=O)[C@H](Cc1ccc(OP(=O)(O)O)cc1)NC(C)=O`
Data returned: 75.3

Data request: Same question, `CCCCCN(CCCCC)C(=O)[C@H](CCC(=O)O)NC(=O)[C@H](Cc1ccc(OP(=O)(O)O)cc1)NC(=O)Nc1ccc([N+](=O)[O-])cc1` this time
Data returned: 184
